meta.source: PubChem BioAssay (Tox21)

- method notes: A CellTox Green Cytotoxicity Assay to monitor cytotoxicity in HEK293 cells - 32 hour (AID 1224881); also: nearly all actives have a fitted effect of over 40% in size
- assay setup: CellTox Green fluorescence; series mostly up to 76.8 µM
Results filed as inconclusive are left out. Activity calls are given as the source filed them. Calls follow the shape of the dose curve; as a rule, active = well fitted activation curve with a large enough effect in the repeat runs; inconclusive = weak or mixed curves; inactive = flat fitted curve, though single readings scatter.
Outcome codes: active, inactive

> print(dat)
                                    compound  category
 1  Nc1ncnc2c1ncn2[C@@H]1O[C@H](CO)[C@@H](O)[C@H]1O  inactive
 2                        Nc1ccccc1Nc1ccccc1  inactive
 3            Clc1cc(Cl)c2c(c1)N=C1CCCCCN1C2  inactive
 4        COc1cc(CNC(=O)CCCC/C=C/C(C)C)ccc1O  inactive
 5      CCC(C)CCCC(C)(C)O (stereo not given)  inactive
 6                       CCCCCCCCCCCCSCCOCCO  inactive
 7              Nc1ccc(C(=O)Oc2ccccc2)c(O)c1  inactive
 8  Cc1nc2sccn2c(=O)c1CCN1CCC(=C(c2ccc(F)cc2)c2ccc(F)cc2)CC1  inactive
 9  C=CC(C)(O)CC/C=C(/C)CCC=C(C)C (stereo not given)  inactive
10                            O=C(O)c1ccncc1  inactive
11                      CCCCCCCCCCCCN1CCOCC1  inactive
12                       C1CCN(CN2CCCCC2)CC1  inactive
13  CCN(CC)CC(=O)OCC(=O)[C@@]1(O)CC[C@H]2[C@@H]3CCC4=CC(=O)CC[C@]4(C)[C@H]3[C@@H](O)C[C@@]21C  inactive
14                            CCCCOC(=O)CC#N  inactive
15                       S=c1[nH][nH]c(=S)s1  inactive
16                         CCCCCCCCCCCCCCCCN    active
17                           O=C(O)COCC(=O)O  inactive
18  O=C(N[C@@H](Cc1ccccc1)[C@@H](O)C(=O)N1C[C@@H](O)[C@@H](O)C1)c1cc2cc(Cl)ccc2[nH]1  inactive
19             O=Cc1ccc(Cl)c([N+](=O)[O-])c1  inactive
20                                CC/C=C/CCO  inactive
21                 O=Cc1ccc([N+](=O)[O-])cc1  inactive
22                        Cc1ccc(NC=O)c(C)c1  inactive
23  CCc1c(C)[nH]c2c1C(=O)C(CN1CCOCC1)CC2 (stereo not given)  inactive
24  CC1=C(C)C(=O)C(C(CCCCCC(=O)O)c2ccccc2)=C(C)C1=O (stereo not given)  inactive
25            COc1cc(C)c(Cc2cnc(N)nc2N)cc1OC  inactive
26  CCn1nc(Cc2ccccc2)cc1C1CCN(C[C@H]2C[C@H](N(C)[C@@H](C(=O)O)C(C)C)C[C@@H]2c2cccc(F)c2)CC1  inactive
27                    CC1(C)CC(=O)CC(C)(C)N1  inactive
28    O=C(Nc1ccccc1)c1cc([N+](=O)[O-])ccc1Cl  inactive
29                               O=C1C=CCCC1  inactive
30  CC(=O)OCC(=O)[C@@]1(O)CC[C@H]2[C@@H]3CCC4=CC(=O)C=C[C@]4(C)[C@@]3(F)[C@@H](O)C[C@@]21C  inactive
31  C[C@H]1C[C@H]2[C@@H]3CCC4=CC(=O)C=C[C@]4(C)[C@@]3(F)[C@@H](O)C[C@]2(C)[C@@]1(O)C(=O)COP(=O)(O)O  inactive
32           C=CC(O)CCCCC (stereo not given)  inactive
33           C(/C=C/C=C/Nc1ccccc1)=Nc1ccccc1  inactive
34                O=[N+]([O-])c1ccc(Cl)cc1Cl  inactive
35                       [O-][n+]1ccc(Cl)cc1  inactive
36         O=C(O)c1cccnc1Nc1cccc(C(F)(F)F)c1  inactive
37            COc1ccc(/C(C)=C/C(=O)O)c(OC)c1  inactive
38                                CC/C=C\CCO  inactive
39   CCC(C)C1N=C(C)C(C)S1 (stereo not given)  inactive
40                O=C(O)c1ccccc1[N+](=O)[O-]  inactive
41  CC1(C)[C@@H]2CC[C@]3(C2)[C@@H]1C(=O)CCC3(C)C  inactive
42                            CC(=O)c1cccnc1  inactive
43  O=C(C1CCCCC1)N1CC(=O)N2CCCc3ccccc3C2C1 (stereo not given)  inactive
44               CCOc1cc(OCC)c(C(C)=O)cc1OCC  inactive
45       CC(C)=CCCC(C)C=O (stereo not given)  inactive
46  CCC(C(=O)O)c1ccc(N2Cc3ccccc3C2=O)cc1 (stereo not given)  inactive
47  C[C@@H](O)[C@H]1C(=O)N2C(C(=O)O)=C(S[C@@H]3CN[C@H](CNS(N)(=O)=O)C3)[C@H](C)[C@H]12  inactive
48                       FC(F)(Cl)C(F)(Cl)Cl  inactive
49                  CC1(C)CC(O)CC(C)(C)N1[O]  inactive
50  CCN(CCCCOC(=O)c1ccc(OC)c(OC)c1)C(C)Cc1ccc(OC)cc1 (stereo not given)  inactive
51                     CCOc1ccc(NC(C)=O)cc1N  inactive
52       C=CC(C)CCC=C(C)C (stereo not given)  inactive
53                                    CCCCCO  inactive
54                           CCCc1ccc(OC)cc1  inactive
55        CCCC1CCCC(=O)O1 (stereo not given)  inactive
